# cytotoxicity at 70.5 h annotations
experiment: Human HepG2 cell viability assay in 384 well format; type: toxicity, cell-based; parameters: dose 125 nL, time 70.5 hour; concentration not given beside the values; settings: HepG2 cells, read-out: Inhibition

compound | cytotoxicity at 70.5 h, %
COc1ccccc1C1(CNc2ccc(C(=O)N(C)C)cn2)CC1 | 25.8
CCN(Cc1ccoc1)Cc1nc(COC)no1 | -7.42
c1ccc(-c2nnc3n2CCN(c2nc(C4CC4)ns2)C3)cc1 | -8
Cc1cc(F)ccc1NCC(=O)NCC(F)(F)F | 0.946
O=C(O)C1(Oc2cccc(F)c2)CCN(C2CCOCC2)CC1 | -6.65
CCN(C(=O)c1ccc2c(c1)OCO2)C1CC(=O)NC1=O (stereo unspecified) | -6.4
